# experimental_target: RBL-1 Cell 5-Lipoxygenase (Rattus norvegicus)
# Construct: the supernatant was saved as the source of enzymes; endogenous in cells
# Sequence (P12527 1-673): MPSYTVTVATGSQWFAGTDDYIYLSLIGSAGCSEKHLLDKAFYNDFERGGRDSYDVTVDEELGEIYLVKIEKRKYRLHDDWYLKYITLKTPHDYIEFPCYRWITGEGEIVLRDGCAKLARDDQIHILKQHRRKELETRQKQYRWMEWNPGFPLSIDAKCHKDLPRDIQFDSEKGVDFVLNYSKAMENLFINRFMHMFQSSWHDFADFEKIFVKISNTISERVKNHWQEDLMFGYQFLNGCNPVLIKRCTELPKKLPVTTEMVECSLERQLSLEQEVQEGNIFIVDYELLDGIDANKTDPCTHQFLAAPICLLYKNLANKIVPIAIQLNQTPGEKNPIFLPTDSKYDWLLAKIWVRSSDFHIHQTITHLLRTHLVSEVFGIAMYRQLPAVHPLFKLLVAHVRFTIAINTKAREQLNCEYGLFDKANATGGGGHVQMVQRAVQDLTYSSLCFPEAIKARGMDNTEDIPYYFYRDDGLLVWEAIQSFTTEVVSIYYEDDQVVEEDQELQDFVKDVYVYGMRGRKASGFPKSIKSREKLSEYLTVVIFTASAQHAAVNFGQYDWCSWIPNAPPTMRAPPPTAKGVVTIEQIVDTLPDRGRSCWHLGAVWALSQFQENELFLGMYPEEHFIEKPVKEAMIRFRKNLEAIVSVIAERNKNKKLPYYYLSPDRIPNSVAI
# assay_protocol: Procedure II: 5-lipoxygenase inhibition in disrupted RBL-1 cells (supernatant as enzyme source)
# stated_conditions: read-out: IC50 5-LO (Procedure II)
measurement_name: pIC50
Numbers only, as −log10 of the molar value.

[[record]]
molecule = "COc1ccc(-n2nc(CCOC(=O)N(O)C(C)C)c(Br)c2-c2ccc(Cl)cc2)cc1 [2-F]"
experimental_target = "RBL-1 Cell 5-Lipoxygenase (Rattus norvegicus)"
measurement_name = "pIC50"
reported_value = 6.85

[[record]]
molecule = "COc1ccc(-n2nc(COC(=O)N(C)O)c(Br)c2-c2ccc(C)cc2)cc1 [1-N]"
experimental_target = "RBL-1 Cell 5-Lipoxygenase (Rattus norvegicus)"
measurement_name = "pIC50"
reported_value = 6.39

[[record]]
molecule = "COc1ccc(-n2nc(CCOC(=O)N(O)C(C)C)c(Cl)c2-c2ccc(Cl)cc2)cc1 [2-D]"
experimental_target = "RBL-1 Cell 5-Lipoxygenase (Rattus norvegicus)"
measurement_name = "pIC50"
reported_value = 7.15

[[record]]
molecule = "COc1ccc(-n2nc(CCOC(=O)N(C)O)c(Cl)c2-c2ccc(C)cc2)cc1 [2-I]"
experimental_target = "RBL-1 Cell 5-Lipoxygenase (Rattus norvegicus)"
measurement_name = "pIC50"
reported_value = 7.00

[[record]]
molecule = "COc1ccc(-n2nc(COC(=O)NO)cc2-c2ccc(C)cc2)cc1 [1-J]"
experimental_target = "RBL-1 Cell 5-Lipoxygenase (Rattus norvegicus)"
measurement_name = "pIC50"
reported_value = 5.76

[[record]]
molecule = "COc1ccc(-n2nc(COC(=O)N(O)C(C)C)c(Br)c2-c2ccc(Cl)cc2)cc1 [1-F]"
experimental_target = "RBL-1 Cell 5-Lipoxygenase (Rattus norvegicus)"
measurement_name = "pIC50"
reported_value = 6.92

[[record]]
molecule = "COc1ccc(-n2nc(COC(=O)NO)cc2-c2ccc(Cl)cc2)cc1 [1-A]"
experimental_target = "RBL-1 Cell 5-Lipoxygenase (Rattus norvegicus)"
measurement_name = "pIC50"
reported_value = 5.90

[[record]]
molecule = "COc1ccc(-n2nc(COC(=O)N(C)O)cc2-c2ccc(C)cc2)cc1 [1-K]"
experimental_target = "RBL-1 Cell 5-Lipoxygenase (Rattus norvegicus)"
measurement_name = "pIC50"
reported_value = 6.52

[[record]]
molecule = "COc1ccc(-n2nc(COC(=O)NO)c(Cl)c2-c2ccc(C)cc2)cc1 [1-P]"
experimental_target = "RBL-1 Cell 5-Lipoxygenase (Rattus norvegicus)"
measurement_name = "pIC50"
reported_value = 6.05

[[record]]
molecule = "COc1ccc(-n2nc(CCOC(=O)N(C)O)c(Br)c2-c2ccc(C)cc2)cc1 [2-L]"
experimental_target = "RBL-1 Cell 5-Lipoxygenase (Rattus norvegicus)"
measurement_name = "pIC50"
reported_value = 7.05


// input: 7 molecules below; output: pIC50 for each
1. COc1ccc(-n2nc(CCCOC(=O)NO)cc2-c2ccc(Cl)cc2)cc1 [3-A]
2. COc1ccc(-n2nc(CCOC(=O)N(C)O)c(Cl)c2-c2ccc(Cl)cc2)cc1 [2-C]
3. COc1ccc(-n2nc(CCCOC(=O)N(O)C(C)C)c(Br)c2-c2ccc(Cl)cc2)cc1 [3-G]
4. COc1ccc(-n2nc(COC(=O)N(O)C(C)C)cc2-c2ccc(C)cc2)cc1 [1-L]
5. COc1ccc(-n2nc(COC(=O)NO)c(Cl)c2-c2ccc(Cl)cc2)cc1 [1-G]
6. COc1ccc(-n2nc(COC(=O)N(O)C(C)C)c(Br)c2-c2ccc(C)cc2)cc1 [1-O]
7. COc1ccc(-n2nc(COC(=O)N(O)C(C)C)cc2-c2ccc(Cl)cc2)cc1 [1-C]

5.52
6.33
7.52
6.32
6.12
6.74
5.99

Your task in this section: give pIC50 for each listed record.
1. COc1ccc(-n2nc(COC(=O)N(O)C(C)C)c(Cl)c2-c2ccc(Cl)cc2)cc1 [1-I]
2. COc1ccc(-n2nc(CCOC(=O)N(C)O)cc2-c2ccc(C)cc2)cc1 [2-G]
3. COc1ccc(-n2nc(CCOC(=O)N(C)O)c(Br)c2-c2ccc(Cl)cc2)cc1 [2-E]
4. COc1ccc(-n2nc(CCCOC(=O)N(C)O)c(Cl)c2-c2ccc(Cl)cc2)cc1 [3-D]

6.64
6.19
6.72
7.00

For each entry beneath this line, provide reported pIC50.
1. COc1ccc(-n2nc(COC(=O)NO)c(Br)c2-c2ccc(C)cc2)cc1 [1-M]
2. COc1ccc(-n2nc(COC(=O)N(C)O)c(Cl)c2-c2ccc(C)cc2)cc1 [1-Q]

1: 5.28; 2: 7.30

Parameter requested: pIC50. Apply to each item below.
1. COc1ccc(-n2nc(CCOC(=O)N(O)C(C)C)cc2-c2ccc(C)cc2)cc1 [2-H]
2. COc1ccc(-n2nc(CCOC(=O)N(O)C(C)C)c(Cl)c2-c2ccc(C)cc2)cc1 [2-J]
3. COc1ccc(-n2nc(COC(=O)NO)c(Br)c2-c2ccc(Cl)cc2)cc1 [1-D]
4. COc1ccc(-n2nc(CCOC(=O)N(O)C(C)C)cc2-c2ccc(Cl)cc2)cc1 [2-B]

7.22
7.52
6.08
7.00
